- experimental-target: Protein kinase C (PKC)
- protocol-description: Inhibition of protein kinase C (PKC) purified from rat brain
# note: boundary value 10 µM maps to no; IC50 below it maps to yes

Exam item: Below 10 µM on IC50? Entry CCCCCCCCCCCCC1(O)C[N+](C)(C)CCO1.[Br-] (configuration not stated)
Marked response: no

Exam item: Below 10 µM on IC50? Entry CCCCCCCCCCCCCCCCCC1(O)C[N+](C)(C)CCO1.[Br-] (configuration not stated)
Marked response: yes

Exam item: Below 10 µM on IC50? Entry CCCCCCCCCCCCCCCC1(OC)C[N+](C)(C)CCO1.[Br-] (configuration not stated)
Marked response: yes

Exam item: Below 10 µM on IC50? Entry CCCCCCCCCCCCCCCC(=O)OC(CC(=O)[O-])C[N+](C)(C)C (racemic)
Marked response: no

Exam item: Below 10 µM on IC50? Entry CCCCCCCCCCCCCCCCCCC1(O)C[N+](C)(C)CCO1.[Br-] (configuration not stated)
Marked response: yes

Exam item: Below 10 µM on IC50? Entry CCCCCCCCCCCCCCCC1(O)C[N+](C)(C)CCO1.[Br-] (configuration not stated)
Marked response: yes

Exam item: Below 10 µM on IC50? Entry CCCCCCCCCCC1(O)C[N+](C)(C)CCO1.[Br-] (configuration not stated)
Marked response: no

Exam item: Below 10 µM on IC50? Entry CCCCCCCCCCCCCC1(O)C[N+](C)(C)CCO1.[Br-] (configuration not stated)
Marked response: no

Exam item: Below 10 µM on IC50? Entry CCCCCCCCCCCCCCC1(O)C[N+](C)(C)CCO1.[Br-] (configuration not stated)
Marked response: yes

Exam item: Below 10 µM on IC50? Entry "CCCCCCCCCCCCCCC[C@@]1(O)C[N+](C)(C)C[C@@H](CC(=O)[O-])O1"
Marked response: no

Exam item: Below 10 µM on IC50? Entry CCCCCCCCCCCCCCCCC1(O)C[N+](C)(C)CCO1.[Br-] (configuration not stated)
Marked response: yes

Exam item: Below 10 µM on IC50? Entry "CCCCCCCCCCCCCCCC(=O)C[N+](C)(C)CCCO.[Br-]"
Marked response: yes
